Data origin, for the record: patent US20250136606A1

- target_desc: TRPML1 (Homo sapiens, UniProt Q9GZU1)
- Sequence (Q9GZU1 whole entry L15A/L16A/L577A/L578A, form open): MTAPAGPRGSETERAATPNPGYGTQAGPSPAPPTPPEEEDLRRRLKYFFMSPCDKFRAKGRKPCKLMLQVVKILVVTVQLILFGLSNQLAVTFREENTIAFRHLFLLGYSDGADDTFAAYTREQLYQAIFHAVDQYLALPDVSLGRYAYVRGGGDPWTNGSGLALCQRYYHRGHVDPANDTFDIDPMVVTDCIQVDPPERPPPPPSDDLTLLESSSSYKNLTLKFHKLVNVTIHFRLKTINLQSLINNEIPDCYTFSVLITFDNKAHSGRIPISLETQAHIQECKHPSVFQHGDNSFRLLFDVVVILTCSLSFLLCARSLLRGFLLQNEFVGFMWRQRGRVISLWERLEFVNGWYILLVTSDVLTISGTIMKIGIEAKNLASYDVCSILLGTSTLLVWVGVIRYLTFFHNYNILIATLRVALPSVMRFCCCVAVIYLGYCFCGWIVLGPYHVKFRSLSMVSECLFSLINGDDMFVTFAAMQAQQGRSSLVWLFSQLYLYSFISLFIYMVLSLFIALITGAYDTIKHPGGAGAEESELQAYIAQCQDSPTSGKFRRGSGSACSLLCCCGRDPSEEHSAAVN
- test_summary: Fluorescent TRPML1 assay (Fluo4-AM calcium fluorescence in doxycycline-induced HEK-293 Trex cells)
- Type: cell-based
- condition_parameters: fluorescent calcium assay
pEC50: −log10 of the molar value.
In this section, each of the molecules is paired with its reported pEC50.

Some molecules with known pEC50 results, for comparison:
> print(dat)
                              smiles.record  recorded.value
1  C[C@H]1CN(C(=O)OC(C)(C)C)CCN1c1ncnc2c1c(-c1ccccn1)cn2-c1ccc(F)c(Cl)c1          > 7.00
2  C[C@H]1CN(C(=O)OC(C)(C)C)CCN1c1ncnc2c1c(N1CCCC1)cn2C1CCOCC1    5.70 to 6.30
3  C[C@@H]1CN(c2ncnc3c2c(C2CC2)nn3-c2cc(F)cc(F)c2)CCN1C(=O)OC(C)(C)C          > 7.00
4  C[C@@H]1CN(c2ncnc3c2c(-c2ccccn2)cn3-c2cc(C#N)ccn2)CCN1C(=O)OC(C)(C)C          > 7.00
5  C[C@@H]1CN(c2ncnc3c2c(-c2ccccc2F)cn3-c2cc(F)ccn2)[C@@H](C)CN1C(=O)OC(C)(C)C          > 7.00

## Input Given the molecule `CC(C)(C)OC(=O)N1CCN(c2ncnc3c2c(C2CC2)cn3-c2ccc(Cl)c(F)c2)CC1` , what is its reported pEC50?
## Output 6.30 to 7.00

## Input Given the molecule `C[C@H]1CN(C(=O)OC(C)(C)C)CCN1c1ncnc2c1c(-c1ccccc1F)cn2-c1cc(C#N)ncn1` , what is its reported pEC50?
## Output > 7.00

----------
- target_desc: TRPML3 (Homo sapiens, UniProt Q8TDD5)
- Construct: expressed in transfected cells
- Sequence (Q8TDD5 1-553): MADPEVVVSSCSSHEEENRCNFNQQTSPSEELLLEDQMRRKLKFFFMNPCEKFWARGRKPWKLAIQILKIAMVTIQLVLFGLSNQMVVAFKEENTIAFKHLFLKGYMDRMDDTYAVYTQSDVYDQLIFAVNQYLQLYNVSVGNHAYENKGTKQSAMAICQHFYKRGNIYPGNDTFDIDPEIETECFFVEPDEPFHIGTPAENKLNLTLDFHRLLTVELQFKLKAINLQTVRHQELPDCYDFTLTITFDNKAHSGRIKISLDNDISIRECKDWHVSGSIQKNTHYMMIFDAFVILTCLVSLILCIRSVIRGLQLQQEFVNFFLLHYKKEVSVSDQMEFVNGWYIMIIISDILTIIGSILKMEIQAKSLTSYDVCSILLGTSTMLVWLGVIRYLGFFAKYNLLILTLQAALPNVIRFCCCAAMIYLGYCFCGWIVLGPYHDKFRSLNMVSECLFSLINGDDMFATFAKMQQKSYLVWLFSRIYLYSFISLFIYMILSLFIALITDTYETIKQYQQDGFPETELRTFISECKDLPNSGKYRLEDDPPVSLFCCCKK
- test_summary: Fluorescent TRPML3 assay (performed as for TRPML1, substituting the TRPML3 subtype)
- Assay type: cell-based
- condition_parameters: fluorescent calcium assay
pEC50: −log10 of the molar value.
property_measured: pEC50

> print(dat)
                                   compound  property.measured  recorded.value
1  CC(C)(C)OC(=O)N1CC2(C1)CN(c1ncnc3c1c(C1CC1)cn3-c1cc(Cl)cc(Cl)c1)C2 [Compound 464]              pEC50    6.30 to 7.00
2  C[C@H]1CN(C(=O)OC(C)(C)C(F)(F)F)CCN1c1ncnc2c1c(-c1cncnc1)cn2-c1cc(C#N)ccn1 [Compound 335]              pEC50          > 7.00
3  C[C@H]1CN(C(=O)OC(C)(C)C)CCN1c1ncnc2c1c(C1CC1)cn2-c1cccc(OC(F)F)c1 [Compound 198]              pEC50          > 7.00
4  Cc1ccc(Cl)cc1-n1cc(-c2ccccn2)c2c(N3CCN(C(=O)OC(C)(C)C)CC3C)ncnc21 (stereo not drawn) [Compound 159]              pEC50    6.30 to 7.00
5  COc1cccc(-n2cc(C3CC3)c3c(N4CCN(C(=O)OC(C)(C)C)C[C@H]4C)ncnc32)c1 [Compound 201]              pEC50    6.30 to 7.00
6  C[C@H]1CN(c2ncnc3c2c(C2CC2)cn3-c2cc(F)cc(F)c2)CCN1C(=O)OC(C)(C)C [Compound 188]              pEC50    6.30 to 7.00

// below: pEC50 requested for another compound
## Input Given the compound CC(C)OC(=O)N1CCN(c2ncnc3c2c(C2CC2)cn3-c2cc(C#N)ccn2)[C@@H](C)C1 [Compound 386] , what is its reported pEC50?
## Output 6.30 to 7.00

----------
- target_desc: TRPML2 (Homo sapiens, UniProt Q8IZK6)
- Construct: expressed in transfected cells
- Sequence (Q8IZK6 whole entry): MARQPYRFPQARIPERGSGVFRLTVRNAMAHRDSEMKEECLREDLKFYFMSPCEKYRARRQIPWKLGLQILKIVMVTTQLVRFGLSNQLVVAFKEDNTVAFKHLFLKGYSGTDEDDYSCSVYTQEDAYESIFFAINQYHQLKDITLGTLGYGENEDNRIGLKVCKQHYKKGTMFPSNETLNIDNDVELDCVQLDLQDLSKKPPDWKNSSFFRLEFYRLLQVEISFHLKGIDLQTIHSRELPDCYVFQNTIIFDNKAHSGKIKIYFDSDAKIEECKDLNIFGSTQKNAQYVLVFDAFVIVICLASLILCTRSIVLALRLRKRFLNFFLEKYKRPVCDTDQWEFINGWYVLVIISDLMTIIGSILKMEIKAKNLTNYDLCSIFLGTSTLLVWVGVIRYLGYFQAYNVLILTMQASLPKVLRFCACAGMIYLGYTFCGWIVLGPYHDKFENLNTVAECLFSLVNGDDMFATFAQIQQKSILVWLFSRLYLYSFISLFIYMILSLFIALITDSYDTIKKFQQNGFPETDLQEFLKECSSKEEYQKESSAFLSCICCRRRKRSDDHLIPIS
- test_summary: Fluorescent TRPML2 assay (performed as for TRPML1, substituting the TRPML2 subtype)
- Type: cell-based
In this section, each of the compounds is paired with its reported EC50.

Some compounds with known EC50 results, for comparison:
compound	EC50
[2H]C([2H])([2H])C(OC(=O)N1C[C@H](C)N(c2nccc3c2c(C(F)(F)F)cn3-c2cc(C#N)ccn2)C[C@H]1C)(C([2H])([2H])[2H])C([2H])([2H])[2H]	500 to 2000 nM
Cc1cn(-c2cccc(C(F)(F)F)c2)c2ncnc(N3CCN(C(=O)OC(C)(C)C)C[C@@H]3C)c12	< 100 nM
CC(C)(C)OC(=O)N1CCN(c2ncnc3c2c(C(F)(F)F)cn3-c2cc(C#N)ccn2)CC1	500 to 2000 nM
C[C@H]1CN(c2ncnc3c2c(C(F)(F)F)cn3-c2cc(C#N)ccn2)[C@@H](C)CN1C(=O)OC(C)(C)C	100 to 500 nM
Cc1cn(-c2cc(C#N)ccn2)c2ncnc(N3CCN(C(=O)OC(C)(C)C)[C@H](C)C3)c12	< 100 nM
Cc1cn(-c2cccc(F)c2)c2ncnc(N3CCN(C(=O)OC(C)(C)C)C[C@@H]3C)c12	100 to 500 nM
C[C@H]1CN(C(=O)OC(C)(C)C)CCN1c1ncnc2c1c(N1CCC1)cn2-c1cccc(F)c1	< 100 nM
CC1CC1c1cn(-c2cc(C#N)ccn2)c2ncnc(N3CCN(C(=O)OC(C)(C)C)C[C@@H]3C)c12 (stereo partly drawn)	< 100 nM

## Input Return EC50 measured with TRPML2 (Homo sapiens, UniProt Q8IZK6) given this compound: `C[C@@H]1CN(c2ncnc3c2c(C(F)(F)F)cn3-c2cc(C#N)ccn2)[C@@H](C)CN1C(=O)OC1(C(F)(F)F)CCC1`
## Output 100 to 500 nM

----------
- target_desc: TRPML2 (Homo sapiens)
- Construct: expressed in transfected cells
- test_summary: Fluorescent TRPML2 assay (performed as for TRPML1, substituting the TRPML2 subtype)
- Format: cell-based
- condition_parameters: fluorescent calcium assay
pEC50: −log10 of the molar value.
In this section, each of the compounds is paired with its reported pEC50.

Some compounds with known pEC50 results, for comparison:
> print(dat)
                              smiles.record            target.desc  property.measured  recorded.value
1  C[C@H]1CN(C(=O)OC(C)(C)C)CCN1c1ncnc2c1c(C1CC1)cn2-c1cccc(F)c1  TRPML2 (Homo sapiens)              pEC50    6.30 to 7.00
2  C[C@H]1CN(C(=O)OCC(F)(F)F)CCN1c1ncnc2c1c(C1CC1)cn2-c1cc(C#N)ccn1  TRPML2 (Homo sapiens)              pEC50    5.70 to 6.30
3  Cc1nccnc1-c1cn(-c2cccc(OC(F)(F)F)c2)c2ncnc(N3CCN(C(=O)OC(C)(C)C)C[C@@H]3C)c12  TRPML2 (Homo sapiens)              pEC50    5.70 to 6.30
4  CC(C)(CF)OC(=O)N1CCN(c2ncnc3c2c(-c2ccccc2F)cn3-c2cccnc2)CC1  TRPML2 (Homo sapiens)              pEC50          < 5.70
5  C[C@@H]1CN(c2ncnc3c2c(-c2ccccc2F)cn3-c2nccc(C#N)n2)[C@@H](C)CN1C(=O)OC(C)(C)C  TRPML2 (Homo sapiens)              pEC50    6.30 to 7.00

## Input Given the compound `C[C@@H]1CN(c2ncnc3c2c(-c2ccccc2F)cn3-c2ncc(C#N)s2)[C@@H](C)CN1C(=O)OC(C)(C)C` , what is its reported pEC50?
## Output > 7.00

## Input Given the compound `CCN(CCOC)c1cn(-c2cc(C#N)ccn2)c2ncnc(N3CCN(C(=O)OC(C)(C)C)C[C@@H]3C)c12` , what is its reported pEC50?
## Output 6.30 to 7.00
